- ASSAY PROCEDURE: Viability of PBMCs exposed to test compound
- Assay type: cell-based, human
- ASSAY CONTEXT: human, pbmcs, 10 μg/ml, 48 h, +LPS; read-out: % Viable Cells
READOUT TYPE: viability at 48 h (%)
Lab book: enter the figure in %, no units written.

Query string: Need viability at 48 h of Nc1ncnc2pc[nH]c12 (stereo not shown) , thanks.
Result string: 104

====

- ASSAY PROCEDURE: Viability of PBMCs exposed to test compound
- Type: cell-based, human
- ASSAY CONTEXT: human, pbmcs, 50 μg/ml, 48 h, +LPS; read-out: % Viable Cells
READOUT TYPE: viability at 48 h
Just so you know, I need the unit written after the number.

Query string: Need viability at 48 h of Nc1ncnc2pc[nH]c12 (stereo not shown) , thanks.
Result string: 83%
